The reported measurements were obtained from ChEMBL document CHEMBL4196175.

experiment: Growth inhibition of parental mouse BA/F3 cells after 72 hrs by celltiter-glo assay; format: cell-based, BaF3
quantity-kind: GI50 at 72 h (nM)
A number alone suffices; assume nM.

Need GI50 at 72 h, item Cc1cc(Nc2ncc3c(n2)N(C)C(=O)N(c2cc(NC(=O)c4cccc(C(F)(F)F)c4)ccc2C)C3)n(C)n1
2060

Need GI50 at 72 h, item Cc1ccc(Nc2ncc3c(n2)N(C)C(=O)N(c2cc(NC(=O)c4cc(N5CCOCC5)cc(C(F)(F)F)c4)ccc2C)C3)cn1
1650

Need GI50 at 72 h, item CC(=O)N1CCN(c2ccc(Nc3ncc4c(n3)N(C)C(=O)N(c3cc(NC(=O)c5ccc(CN6CCC(N(C)C)C6)c(C(F)(F)F)c5)ccc3C)C4)cn2)CC1 (stereo not drawn)
187

* * *

assay: Metabolic stability in human liver microsomes assessed as compound remaining at 1 uM after 30 mins; format: ADME, microsome; conditions: read-out: Stability
I'd appreciate it if you could supply remaining at 0.5 h, 1 µM values for the items below.
A number alone suffices; assume %.

Need remaining at 0.5 h, 1 µM, item CCN1CCN(C(=O)c2ccc(Nc3ncc4c(n3)N(C)C(=O)N(c3cc(NC(=O)c5cccc(C(F)(F)F)c5)ccc3C)C4)cn2)CC1
24.6

Need remaining at 0.5 h, 1 µM, item Cc1ccc(Nc2ncc3c(n2)N(C)C(=O)N(c2cc(NC(=O)c4cccc(C(F)(F)F)c4)ccc2C)C3)cn1
78.6

Need remaining at 0.5 h, 1 µM, item Cc1ccc(Nc2ncc3c(n2)N(C)C(=O)N(c2cc(NC(=O)c4ccc(CN5CCC(N(C)C)C5)c(C(F)(F)F)c4)ccc2C)C3)cn1 (centres undefined)
57.5

Need remaining at 0.5 h, 1 µM, item CC(=O)N1CCN(c2ccc(Nc3ncc4c(n3)N(C)C(=O)N(c3cc(NC(=O)c5cccc(C(F)(F)F)c5)ccc3C)C4)cn2)CC1
47.3

Need remaining at 0.5 h, 1 µM, item CCN1CCN(c2ccc(Nc3ncc4c(n3)N(C)C(=O)N(c3cc(NC(=O)c5cccc(C(F)(F)F)c5)ccc3C)C4)cc2)CC1
46.7

Need remaining at 0.5 h, 1 µM, item CCN1CCN(c2ccc(Nc3ncc4c(n3)N(C)C(=O)N(c3cc(NC(=O)c5cccc(C(F)(F)F)c5)ccc3C)C4)cn2)CC1
29.8

Need remaining at 0.5 h, 1 µM, item Cc1cc(Nc2ncc3c(n2)N(C)C(=O)N(c2cc(NC(=O)c4cccc(C(F)(F)F)c4)ccc2C)C3)n(C)n1
69.2

Need remaining at 0.5 h, 1 µM, item Cc1ccc(NC(=O)c2cccc(C(F)(F)F)c2)cc1N1Cc2cnc(Nc3cnn(C)c3)nc2N(C)C1=O
78.8

Need remaining at 0.5 h, 1 µM, item Cc1ccc(NC(=O)c2cccc(C(F)(F)F)c2)cc1N1Cc2cnc(N)nc2N(C)C1=O
84.4

* * *

target: Mitogen-activated protein kinase kinase kinase kinase 2 (Homo sapiens); experiment: Inhibition of GCK (unknown origin) by radiometric biochemical kinase assay
Sequence (Q12851 whole entry): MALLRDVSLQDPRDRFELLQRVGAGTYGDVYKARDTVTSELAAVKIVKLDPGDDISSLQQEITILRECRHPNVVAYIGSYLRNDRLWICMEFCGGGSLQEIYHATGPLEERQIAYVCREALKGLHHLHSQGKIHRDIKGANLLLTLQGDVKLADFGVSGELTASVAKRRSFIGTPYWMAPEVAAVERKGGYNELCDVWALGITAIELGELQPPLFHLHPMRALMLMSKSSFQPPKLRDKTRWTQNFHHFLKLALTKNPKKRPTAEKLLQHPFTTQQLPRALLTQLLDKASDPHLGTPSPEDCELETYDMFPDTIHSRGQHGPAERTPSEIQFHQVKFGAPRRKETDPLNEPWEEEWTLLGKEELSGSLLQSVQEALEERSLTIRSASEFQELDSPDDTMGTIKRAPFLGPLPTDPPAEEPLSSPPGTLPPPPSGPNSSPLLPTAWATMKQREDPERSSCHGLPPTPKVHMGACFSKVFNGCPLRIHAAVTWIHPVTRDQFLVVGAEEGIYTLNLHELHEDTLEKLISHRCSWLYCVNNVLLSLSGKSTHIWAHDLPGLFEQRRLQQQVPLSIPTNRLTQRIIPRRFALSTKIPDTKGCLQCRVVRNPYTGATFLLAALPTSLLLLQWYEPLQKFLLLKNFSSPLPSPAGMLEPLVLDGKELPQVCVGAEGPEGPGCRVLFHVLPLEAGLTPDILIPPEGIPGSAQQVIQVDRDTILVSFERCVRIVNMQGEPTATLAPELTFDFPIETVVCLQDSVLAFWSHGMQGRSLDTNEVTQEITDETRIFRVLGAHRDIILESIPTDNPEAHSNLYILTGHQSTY
pIC50: −log10 of the molar value.
Label False if pIC50 falls below 8; label True in every other case.

Item CCN1CCN(C(=O)c2ccc(Nc3ncc4c(n3)N(C)C(=O)N(c3cc(NC(=O)c5cccc(C(F)(F)F)c5)ccc3C)C4)cn2)CC1 with pIC50 of 8 or above?
True

Item Cc1ccc(Nc2ncc3c(n2)N(C)C(=O)N(c2cc(NC(=O)c4ccccc4)ccc2C)C3)cn1 with pIC50 of 8 or above?
False

Item Cc1ccc(Nc2ncc3c(n2)N(C)C(=O)N(c2cc(NC(=O)c4cc(N5CCOCC5)cc(C(F)(F)F)c4)ccc2C)C3)cn1 with pIC50 of 8 or above?
False

Item CC(=O)N1CCN(c2ccc(Nc3ncc4c(n3)N(C)C(=O)N(c3cc(NC(=O)c5cccc(C(F)(F)F)c5)ccc3C)C4)cn2)CC1 with pIC50 of 8 or above?
True

Item Cc1cc(Nc2ncc3c(n2)N(C)C(=O)N(c2cc(NC(=O)c4cccc(C(F)(F)F)c4)ccc2C)C3)n(C)n1 with pIC50 of 8 or above?
True

Item Cc1ccc(Nc2ncc3c(n2)N(C)C(=O)N(c2cc(NC(=O)c4cc(-n5cnc(C)c5)cc(C(F)(F)F)c4)ccc2C)C3)cn1 with pIC50 of 8 or above?
False

Item Cc1ccc(NC(=O)c2cccc(C(F)(F)F)c2)cc1N1Cc2cnc(N)nc2N(C)C1=O with pIC50 of 8 or above?
False

* * *

experiment: Metabolic stability in dog liver microsomes assessed as compound remaining at 1 uM after 30 mins; assay type: ADME, Canis lupus familiaris, microsome; details: read-out: Stability
I'd appreciate it if you could supply remaining at 0.5 h, 1 µM values for the items below.
A number alone suffices; assume %.

Need remaining at 0.5 h, 1 µM, item Cc1ccc(NC(=O)c2cccc(C(F)(F)F)c2)cc1N1Cc2cnc(Nc3cnn(C)c3)nc2N(C)C1=O
71.3

Need remaining at 0.5 h, 1 µM, item CC(=O)N1CCN(c2ccc(Nc3ncc4c(n3)N(C)C(=O)N(c3cc(NC(=O)c5cccc(C(F)(F)F)c5)ccc3C)C4)cn2)CC1
38

Need remaining at 0.5 h, 1 µM, item CCN1CCN(c2ccc(Nc3ncc4c(n3)N(C)C(=O)N(c3cc(NC(=O)c5cccc(C(F)(F)F)c5)ccc3C)C4)cc2)CC1
21.3

Need remaining at 0.5 h, 1 µM, item Cc1ccc(Nc2ncc3c(n2)N(C)C(=O)N(c2cc(NC(=O)c4ccc(CN5CCC(N(C)C)C5)c(C(F)(F)F)c4)ccc2C)C3)cn1 (centres undefined)
43.1

Need remaining at 0.5 h, 1 µM, item Cc1cc(Nc2ncc3c(n2)N(C)C(=O)N(c2cc(NC(=O)c4cccc(C(F)(F)F)c4)ccc2C)C3)n(C)n1
69.9

Need remaining at 0.5 h, 1 µM, item CCN1CCN(C(=O)c2ccc(Nc3ncc4c(n3)N(C)C(=O)N(c3cc(NC(=O)c5cccc(C(F)(F)F)c5)ccc3C)C4)cn2)CC1
23.3

Need remaining at 0.5 h, 1 µM, item CCN1CCN(c2ccc(Nc3ncc4c(n3)N(C)C(=O)N(c3cc(NC(=O)c5cccc(C(F)(F)F)c5)ccc3C)C4)cn2)CC1
21.4

Need remaining at 0.5 h, 1 µM, item Cc1ccc(NC(=O)c2cccc(C(F)(F)F)c2)cc1N1Cc2cnc(N)nc2N(C)C1=O
67.9

Need remaining at 0.5 h, 1 µM, item Cc1ccc(Nc2ncc3c(n2)N(C)C(=O)N(c2cc(NC(=O)c4cccc(C(F)(F)F)c4)ccc2C)C3)cn1
55.3

* * *

target: CYP2C9 (Homo sapiens); assay: Inhibition of CYP2C9 (unknown origin) assessed as activity remaining at 10 uM relative to control; type: ADME; conditions: read-out: Activity
Sequence (P11712 whole entry): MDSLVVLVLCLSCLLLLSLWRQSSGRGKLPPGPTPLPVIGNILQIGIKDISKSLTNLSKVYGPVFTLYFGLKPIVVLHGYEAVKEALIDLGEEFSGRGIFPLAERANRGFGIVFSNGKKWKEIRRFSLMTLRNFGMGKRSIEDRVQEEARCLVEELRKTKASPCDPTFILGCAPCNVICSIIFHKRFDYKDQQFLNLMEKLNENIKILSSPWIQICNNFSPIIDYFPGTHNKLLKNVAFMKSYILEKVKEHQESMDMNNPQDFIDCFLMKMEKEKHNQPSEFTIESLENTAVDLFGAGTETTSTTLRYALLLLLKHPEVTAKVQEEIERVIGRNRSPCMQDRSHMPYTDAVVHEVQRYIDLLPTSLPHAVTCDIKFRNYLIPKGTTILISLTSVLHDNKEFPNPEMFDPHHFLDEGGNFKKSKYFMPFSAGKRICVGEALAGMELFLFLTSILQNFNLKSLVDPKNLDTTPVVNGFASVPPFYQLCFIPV
I'd appreciate it if you could supply activity at 10 µM values for the items below.
Kindly write the number and append the unit.

Need activity at 10 µM, item CCN1CCN(C(=O)c2ccc(Nc3ncc4c(n3)N(C)C(=O)N(c3cc(NC(=O)c5cccc(C(F)(F)F)c5)ccc3C)C4)cn2)CC1
29%

Need activity at 10 µM, item Cc1cc(Nc2ncc3c(n2)N(C)C(=O)N(c2cc(NC(=O)c4cccc(C(F)(F)F)c4)ccc2C)C3)n(C)n1
38.3%

Need activity at 10 µM, item CCN1CCN(c2ccc(Nc3ncc4c(n3)N(C)C(=O)N(c3cc(NC(=O)c5cccc(C(F)(F)F)c5)ccc3C)C4)cc2)CC1
34.3%

Need activity at 10 µM, item Cc1ccc(NC(=O)c2cccc(C(F)(F)F)c2)cc1N1Cc2cnc(Nc3cnn(C)c3)nc2N(C)C1=O
42.9%

Need activity at 10 µM, item Cc1ccc(NC(=O)c2cccc(C(F)(F)F)c2)cc1N1Cc2cnc(N)nc2N(C)C1=O
68.1%

Need activity at 10 µM, item Cc1ccc(Nc2ncc3c(n2)N(C)C(=O)N(c2cc(NC(=O)c4cccc(C(F)(F)F)c4)ccc2C)C3)cn1
27%

Need activity at 10 µM, item Cc1ccc(Nc2ncc3c(n2)N(C)C(=O)N(c2cc(NC(=O)c4ccc(CN5CCC(N(C)C)C5)c(C(F)(F)F)c4)ccc2C)C3)cn1 (centres undefined)
55.1%

Need activity at 10 µM, item CC(=O)N1CCN(c2ccc(Nc3ncc4c(n3)N(C)C(=O)N(c3cc(NC(=O)c5cccc(C(F)(F)F)c5)ccc3C)C4)cn2)CC1
15.6%

Need activity at 10 µM, item CCN1CCN(c2ccc(Nc3ncc4c(n3)N(C)C(=O)N(c3cc(NC(=O)c5cccc(C(F)(F)F)c5)ccc3C)C4)cn2)CC1
23%

* * *

biological target: Activated CDC42 kinase 1 (Homo sapiens, UniProt Q07912); experiment: Inhibition of ACK1 (unknown origin) by radiometric biochemical kinase assay
Sequence (Q07912 whole entry): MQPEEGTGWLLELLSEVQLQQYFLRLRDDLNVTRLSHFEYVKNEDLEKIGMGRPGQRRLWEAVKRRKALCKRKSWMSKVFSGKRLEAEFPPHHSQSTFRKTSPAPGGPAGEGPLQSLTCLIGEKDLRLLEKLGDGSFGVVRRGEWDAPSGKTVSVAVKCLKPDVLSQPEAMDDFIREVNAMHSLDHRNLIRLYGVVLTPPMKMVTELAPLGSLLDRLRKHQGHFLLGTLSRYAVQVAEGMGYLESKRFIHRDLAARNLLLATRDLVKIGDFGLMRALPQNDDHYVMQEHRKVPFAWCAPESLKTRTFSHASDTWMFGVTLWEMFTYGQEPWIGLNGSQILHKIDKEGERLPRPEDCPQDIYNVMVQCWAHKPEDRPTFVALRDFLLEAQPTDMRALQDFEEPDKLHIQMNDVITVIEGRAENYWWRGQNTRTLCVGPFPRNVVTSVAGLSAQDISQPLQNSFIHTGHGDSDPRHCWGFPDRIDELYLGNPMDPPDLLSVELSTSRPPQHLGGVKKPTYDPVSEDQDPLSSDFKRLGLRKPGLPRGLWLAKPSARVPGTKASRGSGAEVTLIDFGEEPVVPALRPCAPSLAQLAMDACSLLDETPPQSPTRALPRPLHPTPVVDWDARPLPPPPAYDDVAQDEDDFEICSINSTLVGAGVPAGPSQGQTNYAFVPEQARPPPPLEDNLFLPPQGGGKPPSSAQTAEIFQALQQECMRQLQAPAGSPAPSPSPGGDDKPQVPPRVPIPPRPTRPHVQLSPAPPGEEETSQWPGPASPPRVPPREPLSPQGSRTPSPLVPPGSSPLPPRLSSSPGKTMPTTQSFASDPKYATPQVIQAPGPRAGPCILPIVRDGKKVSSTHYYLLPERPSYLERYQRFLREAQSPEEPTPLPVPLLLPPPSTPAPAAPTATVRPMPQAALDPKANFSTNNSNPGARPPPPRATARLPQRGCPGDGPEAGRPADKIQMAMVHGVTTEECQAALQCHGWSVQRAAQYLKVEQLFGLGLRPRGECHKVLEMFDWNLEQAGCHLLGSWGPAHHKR
I'd appreciate it if you could supply pIC50 values for the items below.
pIC50 here: minus log base 10 of the concentration, concentration in moles per litre.

What pIC50 appears in the records for this compound with Activated CDC42 kinase 1 (Homo sapiens, UniProt Q07912)? CCN1CCN(C(=O)c2ccc(Nc3ncc4c(n3)N(C)C(=O)N(c3cc(NC(=O)c5cccc(C(F)(F)F)c5)ccc3C)C4)cn2)CC1
7.89

What pIC50 appears in the records for this compound with Activated CDC42 kinase 1 (Homo sapiens, UniProt Q07912)? Cc1cc(Nc2ncc3c(n2)N(C)C(=O)N(c2cc(NC(=O)c4ccc(CN5CCC(N(C)C)C5)c(C(F)(F)F)c4)ccc2C)C3)n(C)n1 (centres undefined)
7.96

What pIC50 appears in the records for this compound with Activated CDC42 kinase 1 (Homo sapiens, UniProt Q07912)? Cc1ccc(Nc2ncc3c(n2)N(C)C(=O)N(c2cc(NC(=O)c4cc(N5CCC(O)CC5)cc(C(F)(F)F)c4)ccc2C)C3)cn1
7.40

What pIC50 appears in the records for this compound with Activated CDC42 kinase 1 (Homo sapiens, UniProt Q07912)? CCN1CCN(c2ccc(Nc3ncc4c(n3)N(C)C(=O)N(c3cc(NC(=O)c5cccc(C(F)(F)F)c5)ccc3C)C4)cn2)CC1
7.55
